- Tested on: A549 cells
- TEST PROTOCOL: in vitro antiproliferation assay, A549 (lung)
- Format: cell-based
- EXPERIMENTAL PARAMETERS: Table 7; in vitro antiproliferation, A549 (lung) cells
- Description: The IC50 values of various compounds against a various different tumor cell lines were determined using standard in vitro antiproliferation assays. […]
Each entry below carries its reported IC50.

MOLECULE	OBSERVED
CNC(=O)c1cc2cccc(Nc3ncc(F)c(Nc4ccc5c(c4)OCCO5)n3)c2[nH]1 [compound 649]	≤ 20 µM

Quick check: IC50 of CC(C)(C)c1ccc(Nc2nc(Nc3ccc4oc(C(=O)O)cc4c3)ncc2F)cc1 [compound 622] ?
> 20 µM

Now give it for COC(=O)c1cc2cc(Nc3ncc(F)c(Nc4ccc(Cl)c(Cl)c4)n3)ccc2o1 [compound 652] too.
> 20 µM

Now give it for COC(=O)c1cc2cc(Nc3ncc(F)c(Nc4cc(OC)cc(OC)c4)n3)ccc2o1 [compound 656] too.
> 20 µM

Now give it for COC(=O)c1cc2cc(Nc3ncc(F)c(Nc4cccc(OC(C)C)c4)n3)ccc2o1 [compound 623] too.
> 20 µM

Now give it for COc1cc(Nc2nc(Nc3ccc4oc(C(=O)O)cc4c3)ncc2F)cc(OC)c1 [compound 657] too.
> 20 µM

Now give it for O=C(c1cc2cc(Nc3ncc(F)c(Nc4ccc5c(c4)OCCO5)n3)ccc2o1)N1CCCNCC1 [compound 644] too.
≤ 20 µM

Now give it for CCOC(=O)c1cc2cccc(Nc3ncc(F)c(Nc4cc(C)cc(C)c4)n3)c2[nH]1 [compound 646] too.
≤ 20 µM

====

Each entry below carries its reported IC50.
- System: A549 cells
- TEST PROTOCOL: in vitro antiproliferation assay, A549 (lung)
- Format: cell-based
- EXPERIMENTAL PARAMETERS: Table 5; in vitro antiproliferation, A549 (lung) cells

Here is how some molecules turned out for IC50.
MOLECULE	EXPERIMENTAL READOUT	OBSERVED
CC(C)c1ccc(Nc2ncc(F)c(Nc3ccc4c(c3)OCCO4)n2)cc1 [compound 511]	IC50	> 20 µM
CCOC(=O)COc1ccc(Nc2ncc(F)c(Nc3ccc4c(c3)OCCO4)n2)cc1 [compound 480]	IC50	> 20 µM
CCCCCCOc1ccc(Nc2ncc(F)c(Nc3ccc4c(c3)OCCO4)n2)cc1 [compound 477]	IC50	> 20 µM
CN(C)C(=O)COc1cccc(Nc2ncc(F)c(Nc3ccc4c(c3)OCCO4)n2)c1 [compound 481]	IC50	> 20 µM
COC(=O)COc1cccc(Nc2ncc(F)c(Nc3ccc4c(c3)OCCCO4)n2)c1 [compound 580]	IC50	> 20 µM
CCOc1ccc(Nc2ncc(F)c(Nc3ccc4c(c3)OCCO4)n2)cc1 [compound 478]	IC50	≤ 20 µM

Quick check: IC50 of CNC(=O)COc1c(C)cc(Nc2ncc(F)c(N(C)c3ccc4c(c3)OCCO4)n2)cc1C [compound 573] ?
≤ 20 µM

Now give it for Oc1c(Cl)cc(Nc2ncc(F)c(Nc3ccc4c(c3)OC(F)(F)O4)n2)cc1Cl [compound 563] too.
≤ 20 µM

====

- Tested on: A549 cells
- TEST PROTOCOL: in vitro antiproliferation assay, A549 (lung)
- Type: cell-based
- EXPERIMENTAL PARAMETERS: Table 5; in vitro antiproliferation, A549 (lung) cells
- Protocol: The IC50 values of various compounds against a various different tumor cell lines were determined using standard in vitro antiproliferation assays. […]
pIC50: −log10 of the molar value.
Each entry below carries its reported pIC50.

Here is how some compounds turned out for pIC50.
SMILES STRING	pIC50
CN(c1ccc2c(c1)OCCO2)c1nc(Nc2cccc(-c3ncco3)c2)ncc1F	≥ 4.70
COc1cc(Nc2ncc(F)c(Nc3ccc4c(c3)OCCO4)n2)cc(OC)c1OC	≥ 4.70

Quick check: pIC50 of COc1cc(Nc2ncc(F)c(Nc3ccc4c(c3)OCO4)n2)cc(C(F)(F)F)c1 ?
≥ 4.70

Now give it for CCCCOc1ccc(Nc2ncc(F)c(Nc3ccc4c(c3)OCCO4)n2)cc1 too.
< 4.70

Now give it for COC(=O)COc1cccc(Nc2ncc(F)c(Nc3ccc4c(c3)OCCO4)n2)c1 too.
< 4.70

====

- Tested on: H1299 cells
- TEST PROTOCOL: in vitro antiproliferation assay, H1299 (lung)
- Format: cell-based
- EXPERIMENTAL PARAMETERS: Table 7; in vitro antiproliferation, H1299 (lung) cells
Each entry below carries its reported IC50.

Here is how some compounds turned out for IC50.
SMILES STRING	OBSERVED
CNC(=O)c1cc2cccc(Nc3ncc(F)c(Nc4ccc5c(c4)OC(F)(F)O5)n3)c2[nH]1	> 20 µM
COC(=O)c1cc2cc(Nc3ncc(F)c(N(C)c4cc(OC)cc(OC)c4)n3)ccc2o1	≤ 20 µM

Entry COC(=O)c1cc2cc(Nc3ncc(F)c(N(C)c4ccc(OC)c(Cl)c4)n3)ccc2o1 , system H1299 cells: what IC50 was measured?
> 20 µM

Now give it for CCOC(=O)c1cc2cccc(Nc3ncc(F)c(NCCO)n3)c2[nH]1 too.
> 20 µM

Now give it for CNC(=O)c1cc2cccc(Nc3ncc(F)c(Nc4cc(C)cc(C)c4)n3)c2[nH]1 too.
≤ 20 µM

Now give it for CNC(=O)c1cc2cccc(Nc3ncc(F)c(N(C)c4cc(OC)cc(OC)c4)n3)c2[nH]1 too.
≤ 20 µM

Now give it for CNC(=O)c1cc2cccc(Nc3ncc(F)c(Nc4ccc(OC)c(OC)c4)n3)c2[nH]1 too.
≤ 20 µM

====

Each entry below carries its reported pIC50.
- System: PC3
- TEST PROTOCOL: in vitro antiproliferation assay, PC3 (prostate)
- Assay type: cell-based
pIC50: −log10 of the molar value.

Here is how some compounds turned out for pIC50.
COMPOUND	OBSERVED
COc1ccc(Nc2nc(Nc3cccc(OCC(=O)NCC(O)CO)c3)ncc2F)cc1OC (centres unmarked)	< 4.70
Cc1cc(Nc2nc(Nc3cccc(OCCN4CCOCC4)c3)ncc2F)cc(C)c1O	≥ 4.70
CC(C)(C)c1ccc(Nc2nc(Nc3cccc(OCCO)c3)ncc2F)cc1	≥ 4.70
COc1cc(Nc2ncc(F)c(Nc3ccc4c(c3)OCCO4)n2)cc(OC)c1	< 4.70
Cc1cc(Nc2nc(Nc3cccc(OCC(=O)N4CCOCC4)c3)ncc2F)cc(C)c1O	≥ 4.70
CC(C)(C)c1cccc(Nc2nc(Nc3cccc(OCC(=O)NCC(O)CO)c3)ncc2F)c1 (centres unmarked)	< 4.70
Fc1cnc(Nc2cccc(OCCN3CCOCC3)c2)nc1Nc1ccc2c(c1)OCCO2	< 4.70
Oc1cccc(Nc2ncc(F)c(Nc3ccc(OCCN4CCOCC4)cc3)n2)c1	< 4.70
Fc1cnc(Nc2ccc(OCCN3CCOCC3)cc2)nc1Nc1ccc2c(c1)OCCO2	< 4.70
CN(CCO)C(=O)COc1cccc(Nc2ncc(F)c(Nc3ccc4c(c3)OCCO4)n2)c1	< 4.70

Quick check: pIC50 of CCOC(=O)COc1cccc(Nc2nc(Nc3cccc(C(C)(C)C)c3)ncc2F)c1 ?
< 4.70

Now give it for CNC(=O)COc1cccc(Nc2ncc(F)c(Nc3ccc4c(c3)NC(=O)C(C)(C)O4)n2)c1 too.
≥ 4.70

Now give it for CC(C)c1ccc(Nc2ncc(F)c(Nc3ccc4c(c3)OCCO4)n2)cc1 too.
≥ 4.70

Now give it for COc1cc(Nc2ncc(F)c(Nc3cccc(O)c3)n2)cc(OC)c1 too.
≥ 4.70

Now give it for CNC(=O)COc1cccc(Nc2ncc(F)c(Nc3ccc4c(c3)OCCO4)n2)c1 too.
≥ 4.70

Now give it for CC(C)(C)c1cccc(Nc2nc(Nc3cccc(OCC(=O)O)c3)ncc2F)c1 too.
< 4.70

Now give it for Cc1cc(Nc2nc(Nc3cccc(OCC(=O)O)c3)ncc2F)cc(C)c1O too.
< 4.70

====

- Tested on: A549 cells
- TEST PROTOCOL: in vitro antiproliferation assay, A549 (lung)
- Format: cell-based
- EXPERIMENTAL PARAMETERS: Table 7; in vitro antiproliferation, A549 (lung) cells
Each entry below carries its reported IC50.

SMILES STRING	IC50
O=C(NCCO)c1cc2cc(Nc3ncc(F)c(Nc4cccc(O)c4)n3)ccc2o1	> 20 µM
CCOC(=O)c1cc2cc(Nc3ncc(F)c(Nc4ccc5c(c4)OCCO5)n3)ccc2[nH]1	≤ 20 µM
COC(=O)c1cc2cc(Nc3ncc(F)c(Nc4ccc(Cl)cc4)n3)ccc2o1	> 20 µM

From here, focus on the item given below.
Entry CNC(=O)c1cc2cccc(Nc3ncc(F)c(Nc4ccc5c(c4)OCO5)n3)c2[nH]1 , system A549 cells: what IC50 was measured?
≤ 20 µM

These data points were gathered from patent US8809341B2.
